Reference for the values: patent US20150065709A1

Tested on: A431
ASSAY NAME: Inhibition of tumor cells, MTS method
Type: cell-based
ASSAY SETUP: Homo sapiens, A-431, 72 hours
Description: (1) Compounds: in vitro studies the test compounds was dissolved in 100% DMSO and diluted until the final concentration of DMSO was 0.1%. The 0.1% (v/v) DMSO was added into culture medium as solvent control. […] The cell activity was detected using MTS. […] OD value was detected by ELIASA at A450 nm. […] Mean value was calculated for each 3 repeated wells, and IC50 was calculated using nonlinear regression (fitted curve) data analysis method.
VALUE TYPE: IC50 (µM)

- MOLECULE: "CN(C)C/C=C/C(=O)Nc1cc2c(Nc3ccc(F)c(Cl)c3)ncnc2cc1OC(F)F"
  TARGET: "A431"
  IC50 [µM]: 0.652
- MOLECULE: "CN(C/C=C/C(=O)Nc1cc2c(Nc3ccc(F)c(Cl)c3)ncnc2cc1OC1CCOC1)Cc1ccccc1 (stereo not shown)"
  TARGET: "A431"
  IC50 [µM]: 4.91

P. O=C(/C=C/c1ccccn1)Nc1cc2c(Nc3ccc(F)c(Cl)c3)ncnc2cc1OC1CCOC1 (stereo not shown)
Q. COc1cc2ncnc(Nc3ccc(F)c(Cl)c3)c2cc1NC(=O)/C=C/CN(C)Cc1ccccc1
P or Q : whose IC50 is greater? Answer with the label corresponding to your selection.
Q
(Q: 13 µM, P: 0.899 µM)
